Target: μOR (Homo sapiens)
Construct: host or cells: CHO-K1
Test: cell-based
Format: cell-based
Catalogue of compounds with associated EC50
property: EC50

| compound | property | reported measurement |
| --- | --- | --- |
| CC=C1CN2CCC34C(=C(C(=O)OC)C1CC23)Nc1ccc([N+](=O)[O-])cc14 (stereo not drawn) | EC50 | 4 µM |
| C=CC[N+]12CCC34C(=C(C(=O)OC)C(CC31)C(=CC)C2)Nc1ccccc14 (stereo not drawn) | EC50 | > 10 µM |
| C/C=C1/CN2CC[C@]34C(=C(C(=O)OC)[C@H]1C[C@H]23)Nc1ccc(-c2ccccc2)cc14 | EC50 | 0.72 to 0.84 µM |

---

Biological target: UniProtKB Q12809
Sequence (Q12809 whole entry): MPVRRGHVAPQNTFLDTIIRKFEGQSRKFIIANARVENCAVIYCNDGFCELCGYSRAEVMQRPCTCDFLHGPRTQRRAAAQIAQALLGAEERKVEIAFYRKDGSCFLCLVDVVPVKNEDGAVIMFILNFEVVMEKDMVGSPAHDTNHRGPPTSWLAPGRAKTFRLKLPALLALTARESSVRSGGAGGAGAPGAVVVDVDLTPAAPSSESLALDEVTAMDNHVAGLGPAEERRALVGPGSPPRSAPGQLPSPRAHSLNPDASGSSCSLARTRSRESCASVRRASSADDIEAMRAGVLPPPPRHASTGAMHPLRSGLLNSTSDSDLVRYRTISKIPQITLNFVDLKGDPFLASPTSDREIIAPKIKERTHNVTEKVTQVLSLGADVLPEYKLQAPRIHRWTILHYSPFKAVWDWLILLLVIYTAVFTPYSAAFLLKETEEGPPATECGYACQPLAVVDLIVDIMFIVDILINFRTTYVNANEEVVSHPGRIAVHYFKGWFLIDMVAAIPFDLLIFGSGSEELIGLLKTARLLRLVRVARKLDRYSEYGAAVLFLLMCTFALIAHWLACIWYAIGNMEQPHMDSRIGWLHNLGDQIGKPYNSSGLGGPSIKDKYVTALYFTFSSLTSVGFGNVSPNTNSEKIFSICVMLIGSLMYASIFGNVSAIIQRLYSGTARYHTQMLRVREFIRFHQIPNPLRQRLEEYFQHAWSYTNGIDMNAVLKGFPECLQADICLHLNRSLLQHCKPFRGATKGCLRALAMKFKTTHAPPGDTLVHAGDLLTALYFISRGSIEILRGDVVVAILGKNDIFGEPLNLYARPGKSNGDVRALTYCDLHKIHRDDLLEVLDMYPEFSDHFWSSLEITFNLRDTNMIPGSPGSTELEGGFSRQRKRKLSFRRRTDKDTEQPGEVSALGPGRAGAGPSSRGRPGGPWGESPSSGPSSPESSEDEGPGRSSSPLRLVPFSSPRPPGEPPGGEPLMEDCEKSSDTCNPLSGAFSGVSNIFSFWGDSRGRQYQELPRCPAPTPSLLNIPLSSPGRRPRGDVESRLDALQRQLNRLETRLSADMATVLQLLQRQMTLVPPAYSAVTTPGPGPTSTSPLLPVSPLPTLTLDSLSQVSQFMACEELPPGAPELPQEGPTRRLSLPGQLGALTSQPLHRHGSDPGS
Experiment: PDSP radioligand displacement binding
Details: average of three independent trials
Examples of compounds with documented Ki follow.
property: Ki (nM)

| compound | measured on | reported measurement |
| --- | --- | --- |
| C/C=C1/CN2CC[C@]34C(=C(C(=O)OC)[C@H]1C[C@H]23)Nc1ccc(I)cc14 [Compound 3, 10-Iodoakuammicine] | UniProtKB Q12809 | 1100 |
| C/C=C1/CN2CC[C@]34C(=C(C(=O)OC)[C@H]1C[C@H]23)Nc1ccc(Br)cc14 [Compound 2, 10-Bromoakuammicine] | UniProtKB Q12809 | 1340 |

---

Molecular target: Sigma 2
Experiment: PDSP radioligand displacement binding
Details: average of three independent trials

| compound smiles | Ki (nM) |
| --- | --- |
| C/C=C1/CN2CC[C@]34C(=C(C(=O)OC)[C@H]1C[C@H]23)Nc1ccc(I)cc14 | 2220 |
| C/C=C1/CN2CC[C@]34C(=C(C(=O)OC)[C@H]1C[C@H]23)Nc1ccc(Br)cc14 | 2620 |

---

Molecular target: μOR (Homo sapiens)
Construct: host or cells: CHO-K1
Experiment: cell-based
Format: cell-based
We begin with a simple list: items and their reported μOR cAMP inhibition pEC50 ± SEM.

| molecule | μOR cAMP inhibition pEC50 ± SEM |
| --- | --- |
| C/C=C1/C[N+]2(Cc3ccccc3)CC[C@]34C(=C(C(=O)OC)[C@H]1C[C@@H]32)Nc1ccccc14 (stereo partly shown) | 5.6 |
| C/C=C1/CN2CC[C@]34C(=C(C(=O)OC)[C@H]1C[C@H]23)Nc1ccc(-c2ccccc2)cc14 | 6.1 |
| CCC1CN2CCC34C(=C(C(=O)OC)C1CC23)Nc1ccc(Br)cc14 (stereo not shown) [Compound 27, 10-Bromo-19,20-dihydroakuammicine] | 6.0 |
| C/C=C1/CN2CC[C@]34C(=C(C(=O)OC)[C@H]1C[C@H]23)Nc1ccc(-c2ccoc2)cc14 | 6.1 |
| C/C=C1/CN2CC[C@]34C(=C(C(=O)OC)[C@H]1C[C@H]23)Nc1ccc(-c2ccsc2)cc14 | 6.1 |
| C/C=C1/CN2CC[C@]34C(=C(C(=O)OC)[C@H]1C[C@H]23)Nc1ccc(I)cc14 | 4.4 |

---

Ki listing for selected compounds.
Target: 5-HT5A (Homo sapiens)
Sequence (P47898 whole entry, species assumed): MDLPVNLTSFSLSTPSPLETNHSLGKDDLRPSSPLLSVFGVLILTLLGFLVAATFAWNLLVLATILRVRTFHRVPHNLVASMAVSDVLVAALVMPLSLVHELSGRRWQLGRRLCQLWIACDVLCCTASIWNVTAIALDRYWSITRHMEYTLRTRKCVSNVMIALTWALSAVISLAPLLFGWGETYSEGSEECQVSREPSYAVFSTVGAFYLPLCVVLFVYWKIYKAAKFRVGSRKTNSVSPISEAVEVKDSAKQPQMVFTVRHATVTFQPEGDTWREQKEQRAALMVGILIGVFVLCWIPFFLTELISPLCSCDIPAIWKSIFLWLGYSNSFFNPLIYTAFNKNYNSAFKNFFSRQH
Assay: PDSP radioligand displacement binding
Settings: average of three independent trials
property: Ki

| compound smiles | property | reported measurement |
| --- | --- | --- |
| C/C=C1/CN2CC[C@]34C(=C(C(=O)OC)[C@H]1C[C@H]23)Nc1ccc(I)cc14 | Ki | 829 nM |
| C/C=C1/CN2CC[C@]34C(=C(C(=O)OC)[C@H]1C[C@H]23)Nc1ccc(Br)cc14 | Ki | 721 nM |

---

Target: Alpha1A (Homo sapiens)
Sequence (P35348 whole entry): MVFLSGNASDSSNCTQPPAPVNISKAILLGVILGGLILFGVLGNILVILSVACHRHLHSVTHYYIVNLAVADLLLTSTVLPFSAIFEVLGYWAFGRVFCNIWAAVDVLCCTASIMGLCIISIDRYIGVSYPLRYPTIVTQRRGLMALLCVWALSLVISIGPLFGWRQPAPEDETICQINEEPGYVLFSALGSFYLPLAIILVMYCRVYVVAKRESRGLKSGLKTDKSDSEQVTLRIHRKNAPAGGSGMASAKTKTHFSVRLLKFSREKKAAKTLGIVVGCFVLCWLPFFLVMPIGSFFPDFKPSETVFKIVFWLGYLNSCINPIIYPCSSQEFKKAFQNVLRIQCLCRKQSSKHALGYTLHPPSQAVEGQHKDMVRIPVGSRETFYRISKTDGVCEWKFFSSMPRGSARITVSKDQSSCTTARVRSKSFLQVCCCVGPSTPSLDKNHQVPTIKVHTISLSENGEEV
Test: PDSP radioligand displacement binding
Details: average of three independent trials

| compound smiles | Ki [nM] |
| --- | --- |
| C/C=C1/CN2CC[C@]34C(=C(C(=O)OC)[C@H]1C[C@H]23)Nc1ccc(Br)cc14 | 1000 |
| C/C=C1/CN2CC[C@]34C(=C(C(=O)OC)[C@H]1C[C@H]23)Nc1ccc(I)cc14 | 883 |

---

Below, each of the compounds is paired with its reported Emax value.
Molecular target: μOR (Homo sapiens, UniProt P35372)
Construct: host or cells: CHO-K1
Sequence (P35372 whole entry): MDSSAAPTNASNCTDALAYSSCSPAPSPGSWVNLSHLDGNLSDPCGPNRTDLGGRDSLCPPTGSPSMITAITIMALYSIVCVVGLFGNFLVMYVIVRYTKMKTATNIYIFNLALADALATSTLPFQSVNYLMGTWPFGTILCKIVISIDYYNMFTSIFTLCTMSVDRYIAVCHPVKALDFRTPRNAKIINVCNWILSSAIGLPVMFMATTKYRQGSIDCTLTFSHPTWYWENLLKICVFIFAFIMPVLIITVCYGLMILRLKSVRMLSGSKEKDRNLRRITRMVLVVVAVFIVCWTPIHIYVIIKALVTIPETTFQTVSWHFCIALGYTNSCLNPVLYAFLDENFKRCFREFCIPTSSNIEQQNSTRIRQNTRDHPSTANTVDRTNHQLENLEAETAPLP
Assay: cell-based
Type: cell-based
Settings: read-out: μOR cAMP inhibition Emax ± SEM (%)

| compound | Emax |
| --- | --- |
| C/C=C1/CN2CC[C@]34C(=C(C(=O)OC)[C@H]1C[C@H]23)Nc1ccc(-c2ccccc2)cc14 | 106% |
| C/C=C1/CN2CC[C@]34c5ccccc5NC3C(C(=O)OC)[C@H]1C[C@H]24 (stereo partly shown) [Compound 14, 2,16-dihydroakuammicine] | < 10% |
| CC=C1CN2CCC34C(=C(C(=O)OC)C1CC23)Nc1ccc(C#N)cc14 (stereo not shown) | < 10% |
| C=CC[N+]12CCC34C(=C(C(=O)OC)C(CC31)C(=CC)C2)Nc1ccccc14 (stereo not shown) | < 10% |

---

Target: μOR (Homo sapiens)
Construct: host or cells: CHO-K1
Test: cell-based
Assay type: cell-based
The reader will find reported EC50 values listed item by item below.

| molecule | measured on | EC50 |
| --- | --- | --- |
| CC=C1C[N+]2(C)CCC34C(=C(C(=O)OC)C1CC32)Nc1ccc(Br)cc14 (stereo not drawn) [Compound 23, 10-Bromo-N-4-methylakuammicine] | μOR (Homo sapiens) | > 10 µM |
| C/C=C1/CN2CC[C@]34C(=C(C(=O)OC)[C@H]1C[C@H]23)Nc1ccc(-c2ccsc2)cc14 [Compound 6, 10-(3-Thienyl)akuammicine] | μOR (Homo sapiens) | 0.72 to 0.84 µM |
| CCC1CN2CCC34c5ccccc5NC3C(C(=O)OC)C1CC24 (stereo not drawn) [Compound 15, 2,16,19,20-tetrahydroakuammicine] | μOR (Homo sapiens) | > 10 µM |

---

Target: KOR (Homo sapiens)
Experiment: PDSP radioligand displacement binding
Conditions: average of three independent trials

| compound | Ki (nM) |
| --- | --- |
| C/C=C1/CN2CC[C@]34C(=C(C(=O)OC)[C@H]1C[C@H]23)Nc1ccc(I)cc14 [Compound 3, 10-Iodoakuammicine] | 1 |

---

Target: Alpha1D (Homo sapiens, UniProt P25100)
Sequence (P25100 1-572): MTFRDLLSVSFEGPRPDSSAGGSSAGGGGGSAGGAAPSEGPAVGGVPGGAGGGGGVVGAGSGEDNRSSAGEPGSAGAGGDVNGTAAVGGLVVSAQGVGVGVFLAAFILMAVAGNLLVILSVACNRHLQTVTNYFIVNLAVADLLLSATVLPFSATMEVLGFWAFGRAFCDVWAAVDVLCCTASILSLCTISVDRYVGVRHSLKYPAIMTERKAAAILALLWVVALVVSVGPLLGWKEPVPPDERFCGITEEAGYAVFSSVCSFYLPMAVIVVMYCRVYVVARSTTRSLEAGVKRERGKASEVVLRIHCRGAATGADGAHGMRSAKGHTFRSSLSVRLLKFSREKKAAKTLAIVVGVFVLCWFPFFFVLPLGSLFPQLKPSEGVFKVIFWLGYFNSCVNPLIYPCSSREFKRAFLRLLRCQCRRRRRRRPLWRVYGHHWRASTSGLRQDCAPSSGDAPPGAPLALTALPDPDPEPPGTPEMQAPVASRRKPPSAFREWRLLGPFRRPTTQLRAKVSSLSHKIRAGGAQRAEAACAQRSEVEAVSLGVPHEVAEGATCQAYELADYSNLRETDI
Assay: PDSP radioligand displacement binding
Conditions: average of three independent trials
property: Ki (nM)

| compound | measured on | reported measurement |
| --- | --- | --- |
| C/C=C1/CN2CC[C@]34C(=C(C(=O)OC)[C@H]1C[C@H]23)Nc1ccc(I)cc14 [Compound 3, 10-Iodoakuammicine] | Alpha1D (Homo sapiens, UniProt P25100) | 1140 |

---

Molecular target: Alpha2A (Homo sapiens, UniProt P08913)
Sequence (P08913 whole entry): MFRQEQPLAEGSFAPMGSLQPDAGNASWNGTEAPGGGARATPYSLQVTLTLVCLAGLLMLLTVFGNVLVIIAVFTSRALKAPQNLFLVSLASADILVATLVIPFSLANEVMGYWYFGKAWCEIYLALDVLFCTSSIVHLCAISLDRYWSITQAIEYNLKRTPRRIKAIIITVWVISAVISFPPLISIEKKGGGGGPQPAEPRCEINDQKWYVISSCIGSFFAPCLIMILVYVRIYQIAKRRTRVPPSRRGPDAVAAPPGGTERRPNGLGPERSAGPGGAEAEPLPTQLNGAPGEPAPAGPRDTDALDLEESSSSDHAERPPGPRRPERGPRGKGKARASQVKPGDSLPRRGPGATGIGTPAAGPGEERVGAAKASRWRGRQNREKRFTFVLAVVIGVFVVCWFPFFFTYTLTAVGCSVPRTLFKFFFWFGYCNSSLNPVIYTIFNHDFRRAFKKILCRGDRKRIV
Assay: PDSP radioligand displacement binding
Details: average of three independent trials

| molecule | measured on | prefix operator | Ki / nM |
| --- | --- | --- | --- |
| C/C=C1/CN2CC[C@]34C(=C(C(=O)OC)[C@H]1C[C@H]23)Nc1ccc(I)cc14 [Compound 3, 10-Iodoakuammicine] | Alpha2A (Homo sapiens, UniProt P08913) | = | 732 |
| C/C=C1/CN2CC[C@]34C(=C(C(=O)OC)[C@H]1C[C@H]23)Nc1ccc(Br)cc14 [Compound 2, 10-Bromoakuammicine] | Alpha2A (Homo sapiens, UniProt P08913) | > | 10000 |

---

Target: κOR (Homo sapiens)
Construct: host or cells: CHO-K1
Sequence (P41145 whole entry): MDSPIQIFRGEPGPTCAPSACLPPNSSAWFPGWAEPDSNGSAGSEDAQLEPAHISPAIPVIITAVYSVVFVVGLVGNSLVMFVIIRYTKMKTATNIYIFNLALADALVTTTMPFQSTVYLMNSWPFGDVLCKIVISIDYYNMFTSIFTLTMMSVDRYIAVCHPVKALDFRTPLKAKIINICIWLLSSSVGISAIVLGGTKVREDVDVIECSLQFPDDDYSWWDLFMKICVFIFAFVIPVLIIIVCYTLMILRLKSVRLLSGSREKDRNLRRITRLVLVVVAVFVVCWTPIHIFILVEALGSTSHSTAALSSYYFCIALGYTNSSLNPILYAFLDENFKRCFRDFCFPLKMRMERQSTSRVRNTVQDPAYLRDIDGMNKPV
Assay: cell-based
Format: cell-based
A collection of compounds and their measured EC50

| compound | value units | prefix operator | EC50 |
| --- | --- | --- | --- |
| C/C=C1/CN2CC[C@]34c5ccccc5NC3C(C(=O)OC)[C@H]1C[C@H]24 (stereo partly drawn) [Compound 14, 2,16-dihydroakuammicine] | nM | > | 10000 |
| CC=C1C[N+]2(CC3CC3)CCC34C(=C(C(=O)OC)C1CC32)Nc1ccccc14 (stereo not drawn) [Compound 19, N-4-Cyclopropylmethylakuammicine] | nM | = | 4700 |
| CC=C1CN2CCC34C(=C(C(=O)OC)C1CC23)Nc1ccc([N+](=O)[O-])cc14 (stereo not drawn) [Compound 8, 10-Nitroakuammicine] | nM | = | 160 |
| CC=C1CN2CCC34c5cc(I)ccc5NC3C(C(=O)OC)C1CC24 (stereo not drawn) [Compound 22, 10-Iodo-2,16-dihydroakuammicine] | nM | = | 24 |
| CC=C1C[N+]2(C)CCC34C(=C(C(=O)OC)C1CC32)Nc1ccc(Br)cc14 (stereo not drawn) [Compound 23, 10-Bromo-N-4-methylakuammicine] | nM | = | 940 |
| CC=C1CN2CCC34C(=C(C(=O)OC)C1CC23)Nc1ccc(C#N)cc14 (stereo not drawn) [Compound 7, 10-Cyanoakuammicine] | nM | = | 81 |
| C=CC[N+]12CCC34C(=C(C(=O)OC)C(CC31)C(=CC)C2)Nc1ccc(Br)cc14 (stereo not drawn) [Compound 24, 10-Bromo-N-4-allylakuammicine] | nM | = | 650 |
| CCC1CN2CCC34c5ccccc5NC3C(C(=O)OC)C1CC24 (stereo not drawn) [Compound 15, 2,16,19,20-tetrahydroakuammicine] | nM | > | 10000 |
| C=CC[N+]12CCC34C(=C(C(=O)OC)C(CC31)C(=CC)C2)Nc1ccccc14 (stereo not drawn) [Compound 17, N-4-Allylakuammicine] | nM | > | 10000 |
